ASSAYED SYSTEM: Pim2 kinase (Homo sapiens)
METHOD SUMMARY: Pim2 ATP depletion assay
Assay type: biochemical
RECORDED CONDITIONS: read-out: IC50 (μM) PIM2
MEASURED QUANTITY: IC50

[
  {
    "MOLECULE": "N[C@H]1CCCN(c2ccncc2NC(=O)c2ccnc(-c3c(F)cccc3F)n2)C1 [Example 249]",
    "ASSAYED SYSTEM": "Pim2 kinase (Homo sapiens)",
    "EXPERIMENTAL RESULT": "< 1 µM"
  },
  {
    "MOLECULE": "Nc1cnc(-c2ccccc2)nc1C(=O)Nc1cnccc1N1CCCC(O)(C(F)(F)F)C1 (centres unmarked) [Example 262]",
    "ASSAYED SYSTEM": "Pim2 kinase (Homo sapiens)",
    "EXPERIMENTAL RESULT": "1 to 10 µM"
  },
  {
    "MOLECULE": "Nc1ncc(-c2ccccc2Cl)nc1C(=O)Nc1cnccc1N1CCCC(N)C1 (centres unmarked) [Example 346]",
    "ASSAYED SYSTEM": "Pim2 kinase (Homo sapiens)",
    "EXPERIMENTAL RESULT": "< 1 µM"
  },
  {
    "MOLECULE": "CC(C)COc1cncc(-c2ccc(N)c(C(=O)Nc3cnccc3N3CCC[C@H](N)C3)n2)n1 [Example 523]",
    "ASSAYED SYSTEM": "Pim2 kinase (Homo sapiens)",
    "EXPERIMENTAL RESULT": "< 1 µM"
  },
  {
    "MOLECULE": "Nc1ncccc1C(=O)Nc1cnccc1N1CCCC(N)C1 (centres unmarked) [Example 200]",
    "ASSAYED SYSTEM": "Pim2 kinase (Homo sapiens)",
    "EXPERIMENTAL RESULT": "> 25 µM"
  }
]

----------
IC50 by entry:
ASSAYED SYSTEM: Pim1 kinase (Homo sapiens, UniProt P11309)
Sequence (P11309 whole entry): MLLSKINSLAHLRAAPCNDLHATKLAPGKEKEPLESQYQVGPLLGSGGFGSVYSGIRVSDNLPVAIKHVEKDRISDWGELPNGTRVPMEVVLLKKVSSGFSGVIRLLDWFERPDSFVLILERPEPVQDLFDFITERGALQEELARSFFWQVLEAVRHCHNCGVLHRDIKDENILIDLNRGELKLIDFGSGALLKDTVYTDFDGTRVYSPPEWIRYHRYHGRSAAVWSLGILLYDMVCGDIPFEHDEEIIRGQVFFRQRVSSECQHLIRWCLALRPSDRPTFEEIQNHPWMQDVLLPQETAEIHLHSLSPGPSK
METHOD SUMMARY: Pim1 ATP depletion assay
Format: biochemical
RECORDED CONDITIONS: Pim1 ATP depletion assay; read-out: IC50 (μM) PIM1

[
  {
    "COMPOUND": "Cc1nc(N)cc(-c2ccncc2NC(=O)c2nc(-c3cc(C(=O)NC(C)C)ccc3F)ccc2N)n1",
    "IC50": "< 1 µM"
  },
  {
    "COMPOUND": "N#Cc1cccc(-c2ccc(N)c(C(=O)Nc3cnccc3N3CCC[C@H](N)C3)n2)c1",
    "IC50": "< 1 µM"
  },
  {
    "COMPOUND": "Nc1ccc(-c2ccc(Cl)s2)nc1C(=O)Nc1cnccc1N1CCC[C@H](N)C1",
    "IC50": "< 1 µM"
  },
  {
    "COMPOUND": "COc1ncccc1-c1nc(C(=O)Nc2cnccc2N2CCC[C@H](N)C2)c(N)cc1F",
    "IC50": "< 1 µM"
  },
  {
    "COMPOUND": "Cc1cnc(C(=O)Nc2cnccc2N2CCCC(N)C2)cn1 (centres unmarked)",
    "IC50": "> 25 µM"
  },
  {
    "COMPOUND": "Nc1cc(F)c(-c2ccccc2F)nc1C(=O)Nc1cnccc1N1CCC[C@H](N)C1",
    "IC50": "< 1 µM"
  },
  {
    "COMPOUND": "Nc1ncc(-c2ccccc2Cl)nc1C(=O)Nc1[nH]c(=O)ncc1N1CCCC(N)C1 (centres unmarked)",
    "IC50": "< 1 µM"
  },
  {
    "COMPOUND": "Nc1nccnc1C(=O)Nc1cnccc1N1CCC2(CC1)OCCO2",
    "IC50": "1 to 10 µM"
  }
]

----------
ASSAYED SYSTEM: Pim2 kinase (Homo sapiens, UniProt Q9P1W9)
Sequence (Q9P1W9 whole entry): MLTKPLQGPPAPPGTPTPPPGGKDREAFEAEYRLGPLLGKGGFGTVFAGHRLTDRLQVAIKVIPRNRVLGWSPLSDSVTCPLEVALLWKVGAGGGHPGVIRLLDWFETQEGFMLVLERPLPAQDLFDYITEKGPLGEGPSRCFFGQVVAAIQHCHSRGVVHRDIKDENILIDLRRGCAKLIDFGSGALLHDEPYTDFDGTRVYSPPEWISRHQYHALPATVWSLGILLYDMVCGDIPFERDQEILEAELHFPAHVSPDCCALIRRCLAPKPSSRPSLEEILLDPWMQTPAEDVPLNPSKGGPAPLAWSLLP
METHOD SUMMARY: Pim2 ATP depletion assay
Type: biochemical
RECORDED CONDITIONS: read-out: IC50 (μM) PIM2

[
  {
    "COMPOUND": "COc1cc(F)ccc1-c1ccc(N)c(C(=O)Nc2cnccc2N2CCC[C@H](N)C2)n1",
    "IC50": "< 1 µM"
  },
  {
    "COMPOUND": "NCC(=O)N1CCN(c2ccncc2NC(=O)c2nc(-c3ccccc3F)ccc2N)CC1",
    "IC50": "< 1 µM"
  },
  {
    "COMPOUND": "Nc1nccnc1C(=O)Nc1cc(C(F)(F)F)ccc1N1CCCC(N)C1 (centres unmarked)",
    "IC50": "1 to 10 µM"
  },
  {
    "COMPOUND": "CC(C)Oc1ccc(F)c(-c2nc(C(=O)Nc3cnccc3N3CCC[C@H](N)C3)c(N)cc2F)c1F",
    "IC50": "< 1 µM"
  },
  {
    "COMPOUND": "Nc1nccnc1C(=O)Nc1cnccc1N1CCCNCC1",
    "IC50": "> 25 µM"
  },
  {
    "COMPOUND": "CC(C)Oc1ccc(F)c(-c2ccc(N)c(C(=O)Nc3cnccc3N3CCC[C@H](N)C3)n2)c1F",
    "IC50": "< 1 µM"
  },
  {
    "COMPOUND": "Nc1cc(-c2ccncc2NC(=O)c2cccc(-c3ccc(F)cc3F)n2)nc(C(F)(F)F)n1",
    "IC50": "< 1 µM"
  },
  {
    "COMPOUND": "Nc1cc(-c2ccncc2NC(=O)c2cccc(-c3ccc(N4CCNCC4)cc3)n2)nc(C(F)(F)F)n1",
    "IC50": "< 1 µM"
  },
  {
    "COMPOUND": "NCCC(=O)N1CCN(c2ccncc2NC(=O)c2nc(-c3ccccc3F)ccc2N)CC1",
    "IC50": "< 1 µM"
  },
  {
    "COMPOUND": "CC(C)NC(=O)c1ccc(F)c(-c2ccc(N)c(C(=O)Nc3cnccc3N3C[C@@H](N)C[C@@H](F)C3)n2)c1",
    "IC50": "< 1 µM"
  },
  {
    "COMPOUND": "Nc1ncc(-c2ccccc2C(F)(F)F)nc1C(=O)Nc1[nH]c(=O)ncc1N1CCCC(N)C1 (centres unmarked)",
    "IC50": "< 1 µM"
  },
  {
    "COMPOUND": "COc1ccncc1-c1ccc(N)c(C(=O)Nc2cnccc2N2CCC[C@H](N)C2)n1",
    "IC50": "< 1 µM"
  },
  {
    "COMPOUND": "Nc1ccc(-c2ccccc2F)nc1C(=O)Nc1cnccc1N1CCC(F)(F)C(N)C1 (centres unmarked)",
    "IC50": "< 1 µM"
  },
  {
    "COMPOUND": "Nc1ccc(-c2c(F)cccc2F)nc1C(=O)Nc1cnccc1N1C[C@@H](N)C[C@H](O)C1",
    "IC50": "< 1 µM"
  },
  {
    "COMPOUND": "Nc1cc(-c2ccncc2NC(=O)c2nc(-c3ccccc3)ccc2N)nc(C(F)(F)F)n1",
    "IC50": "< 1 µM"
  },
  {
    "COMPOUND": "Nc1nccnc1C(=O)Nc1cc(C(F)(F)F)ccc1N1CCNCC1",
    "IC50": "> 25 µM"
  },
  {
    "COMPOUND": "NCCC(=O)N1CCN(c2cnc(=O)[nH]c2NC(=O)c2nc(Cl)c(N)nc2N)CC1",
    "IC50": "< 1 µM"
  },
  {
    "COMPOUND": "COC1CCN(c2ccncc2NC(=O)c2nc(-c3cc(C(=O)NC(C)C)ccc3F)ccc2N)CC1N (centres unmarked)",
    "IC50": "< 1 µM"
  },
  {
    "COMPOUND": "COc1cc(-c2ccc(N)c(C(=O)Nc3cnccc3N3CCC[C@H](N)C3)n2)cnc1N",
    "IC50": "< 1 µM"
  },
  {
    "COMPOUND": "Nc1nc(N)c(C(=O)Nc2[nH]c(=O)ncc2N2CCC(F)CC2)nc1Cl",
    "IC50": "< 1 µM"
  },
  {
    "COMPOUND": "Nc1ncc(-c2ccccc2F)nc1C(=O)Nc1cc(C(=O)c2ccccc2)ccc1N1CCNCC1",
    "IC50": "> 25 µM"
  },
  {
    "COMPOUND": "CCOc1ccc(F)c(-c2ccc(N)c(C(=O)Nc3cnccc3N3CCC[C@H](N)C3)n2)c1",
    "IC50": "< 1 µM"
  },
  {
    "COMPOUND": "CC1CC(N)CN(c2ccncc2NC(=O)c2nc(-c3ccccc3F)ccc2F)C1 (centres unmarked)",
    "IC50": "< 1 µM"
  }
]

----------
ASSAYED SYSTEM: Pim2 kinase (Homo sapiens, UniProt Q9P1W9)
METHOD SUMMARY: Pim2 ATP depletion assay;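 also: Luciferase-based luminescent readout of ATP remaining after PIM2 phosphorylates a BAD peptide, final 5 nM enzyme, 4 µM ATP, 10 µM peptide, 2.5% DMSO, run to roughly half ATP consumption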
Assay type: biochemical
RECORDED CONDITIONS: read-out: IC50 (μM) PIM2

[
  {
    "MOLECULE": "Nc1ccc(-c2c(F)cccc2F)nc1C(=O)Nc1cnccc1N1CC(N)CC(CF)C1 (stereo not drawn)",
    "ASSAYED SYSTEM": "Pim2 kinase (Homo sapiens, UniProt Q9P1W9)",
    "IC50": "< 1 µM"
  },
  {
    "MOLECULE": "Nc1ccc(-c2ccccc2Cl)nc1C(=O)Nc1cnccc1N1CCC[C@H](N)C1",
    "ASSAYED SYSTEM": "Pim2 kinase (Homo sapiens, UniProt Q9P1W9)",
    "IC50": "< 1 µM"
  },
  {
    "MOLECULE": "Nc1ccc(-c2c(F)cccc2F)nc1C(=O)Nc1cnccc1N1CC(N)CC(C(F)(F)F)C1 (stereo not drawn)",
    "ASSAYED SYSTEM": "Pim2 kinase (Homo sapiens, UniProt Q9P1W9)",
    "IC50": "< 1 µM"
  },
  {
    "MOLECULE": "Cc1ccc(-c2ccc(N)c(C(=O)Nc3cnccc3N3CCC[C@H](N)C3)n2)c(F)c1",
    "ASSAYED SYSTEM": "Pim2 kinase (Homo sapiens, UniProt Q9P1W9)",
    "IC50": "< 1 µM"
  },
  {
    "MOLECULE": "COc1cncc(-c2nc(C(=O)Nc3cnccc3N3CCC[C@H](N)C3)c(N)cc2F)n1",
    "ASSAYED SYSTEM": "Pim2 kinase (Homo sapiens, UniProt Q9P1W9)",
    "IC50": "< 1 µM"
  },
  {
    "MOLECULE": "COc1ncccc1-c1cnc(N)c(C(=O)Nc2ccccc2N2CCNCC2)n1",
    "ASSAYED SYSTEM": "Pim2 kinase (Homo sapiens, UniProt Q9P1W9)",
    "IC50": "> 25 µM"
  }
]

// data source = patent US20140249135A1
